test_details: protein stability index of a GFP-peptide fusion (yeast GPS) (PSI 1-4); higher = more stable; sorted into four equal gates, so the index is relative within each strain
experimental_setup: pdr5∆
measurement_name: protein stability index
# print the numeric value only

Example results:
[[record]]
sequence_chain = "LYDALEPSDLRSWTLTS [YGL100W/SEH1]"
experimental_result = 2.79

[[record]]
sequence_chain = "DKLTSIQDTLRTGSQSP [MED7]"
experimental_result = 2.82

[[record]]
sequence_chain = "KLMDEDSVATVIEVIET [YJR042W/NUP85]"
experimental_result = 3.02


Challenge: Record request: protein stability index value, item ILDINVSSSKNKKSEEN [SWP82]
Response given: 3.21

Challenge: Record request: protein stability index value, item ADLKKGKDLSPAINYTK [QCR2]
Response given: 3.36
